target: HLA-A*29:02; test: IEDB peptide-MHC binding, purified MHC/direct/fluorescence; filed as Kd, often an IC50 or EC50 that approximates it; bounds were set here for any values at or beyond the usual limits of such assays; settings: source organism: Vibrio cholerae V52
parameter-measured: Kd

**Query** Kd for MGMEQTMSV ?
**Result** ≥ 20 µM

----------
target: HLA-A*02:12; experiment: IEDB peptide-MHC binding, purified MHC/direct/fluorescence; filed as Kd, often an IC50 or EC50 that approximates it; bounds were set here for any values at or beyond the usual limits of such assays; details: source organism: Vibrio cholerae V52
parameter-measured: Kd (nM)
Please respond with the number in nM and leave the unit unwritten.

**Query** Kd for FLILCSVLL ?
**Result** 7

----------
target: HLA-A*24:02; assay: IEDB peptide-MHC binding, purified MHC/competitive/radioactivity; filed as Kd, often an IC50 or EC50 that approximates it; bounds were set here for any values at or beyond the usual limits of such assays; conditions: source organism: Dengue virus 1 Brazil/97-11/1997
parameter-measured: Kd (nM)
Please respond with the number in nM and leave the unit unwritten.

**Query** Kindly state the measured Kd obtained for LFSGVSWTM with HLA-A*24:02.
**Result** 449

----------
molecular target: HLA-B*57:01; test: IEDB peptide-MHC binding, purified MHC/competitive/radioactivity; filed as Kd, often an IC50 or EC50 that approximates it; bounds were set here for any values at or beyond the usual limits of such assays; conditions: source organism: Dengue virus 1 Singapore/S275/1990
parameter-measured: Kd (nM)
Please respond with the number in nM and leave the unit unwritten.

**Query** Kd for MASSVLLWMA ?
**Result** 859

----------
target: HLA-B*15:09; assay: IEDB peptide-MHC binding, purified MHC/direct/fluorescence; filed as Kd, often an IC50 or EC50 that approximates it; bounds were set here for any values at or beyond the usual limits of such assays; settings: source organism: Bacillus cereus NVH0597-99
parameter-measured: Kd (µM)
Please respond with the number in µM and leave the unit unwritten.

**Query** Kindly state the measured Kd obtained for YNDWEGNEL with HLA-B*15:09.
**Result** 3.92

----------
molecular target: HLA-A*31:01; experiment: IEDB peptide-MHC binding, purified MHC/direct/fluorescence; filed as Kd, often an IC50 or EC50 that approximates it; bounds were set here for any values at or beyond the usual limits of such assays; conditions: source organism: Yellow fever virus
pKd: −log10 of the molar value.
parameter-measured: pKd

**Query** pKd for PHAATIRVL ?
**Result** ≤ 4.70

----------
target: HLA-A*26:01; experiment: IEDB peptide-MHC binding, purified MHC/competitive/fluorescence; filed as Kd, often an IC50 or EC50 that approximates it; bounds were set here for any values at or beyond the usual limits of such assays; conditions: source organism: Escherichia coli APEC O1
parameter-measured: pKd
pKd (log units): -log10 of the concentration in mol/L.

**Query** pKd for YTTDVNQLY ?
**Result** 7.80

----------
biological target: HLA-A*02:03; test: IEDB peptide-MHC binding, purified MHC/competitive/radioactivity; filed as Kd, often an IC50 or EC50 that approximates it; bounds were set here for any values at or beyond the usual limits of such assays; conditions: source organism: Human immunodeficiency virus type 1 (CLONE 12)
parameter-measured: pKd
pKd (log units): -log10 of the concentration in mol/L.

**Query** pKd for PLTFGWCYKL ?
**Result** 4.71

----------
target: HLA-A*24:03; assay: IEDB peptide-MHC binding, purified MHC/competitive/fluorescence; filed as Kd, often an IC50 or EC50 that approximates it; bounds were set here for any values at or beyond the usual limits of such assays; conditions: source organism: Influenza A virus (A/swine/Hannover/1/1981(H1N1))
parameter-measured: pKd
pKd (log units): -log10 of the concentration in mol/L.

**Query** pKd for RMGVQMQRF ?
**Result** 6.53

----------
biological target: HLA-A*02:03; assay: IEDB peptide-MHC binding, purified MHC/competitive/radioactivity; filed as Kd, often an IC50 or EC50 that approximates it; bounds were set here for any values at or beyond the usual limits of such assays; conditions: source organism: Dengue virus 4 Philippines/H241/1956
parameter-measured: pKd
pKd (log units): -log10 of the concentration in mol/L.

**Query** Kindly state the measured pKd obtained for IMAVGLVSL with HLA-A*02:03.
**Result** 9.80

**Query** Kindly state the measured pKd obtained for GIMAVGLVSL with HLA-A*02:03.
**Result** 7.62

**Query** Kindly state the measured pKd obtained for AVASGLLWV with HLA-A*02:03.
**Result** 8.72

**Query** Kindly state the measured pKd obtained for TIMAVLFVV with HLA-A*02:03.
**Result** 7.33

**Query** Kindly state the measured pKd obtained for TLALSLTFI with HLA-A*02:03.
**Result** 8.98

**Query** Kindly state the measured pKd obtained for LLAMGCYSQV with HLA-A*02:03.
**Result** 8.57

----------
molecular target: HLA-B*40:01; test: IEDB peptide-MHC binding, purified MHC/competitive/radioactivity; filed as Kd, often an IC50 or EC50 that approximates it; bounds were set here for any values at or beyond the usual limits of such assays; settings: source organism: Dengue virus 2 Jamaica/1409/1983
Readings of pKd for the listed sequences
pKd (log units): -log10 of the concentration in mol/L.

sequence_code=LETLLLLTL system=HLA-B*40:01 observed=8.24
sequence_code=KELKCGSGI system=HLA-B*40:01 observed=6.69
sequence_code=FEIMDLEKRH system=HLA-B*40:01 observed=6.23

Moving on to the next sequence.
**Query** pKd for TESHNQTFL ?
**Result** 7.79

----------
molecular target: HLA-B*15:01; experiment: IEDB peptide-MHC binding, purified MHC/direct/fluorescence; filed as Kd, often an IC50 or EC50 that approximates it; bounds were set here for any values at or beyond the usual limits of such assays; settings: source organism: Influenza A virus (A/Viet Nam/HN/2004(H5N1))
parameter-measured: Kd

**Query** Kd for RRVRDNMTK ?
**Result** ≥ 20 µM

----------
target: HLA-A*01:01; test: IEDB peptide-MHC binding, purified MHC/competitive/radioactivity; filed as Kd, often an IC50 or EC50 that approximates it; bounds were set here for any values at or beyond the usual limits of such assays; conditions: source organism: SARS coronavirus Tor2
Label fulfilled when Kd < 400 nM; otherwise not fulfilled.

Solved entries (count: 8):
sequence_code=FSNSGADVLY system=HLA-A*01:01 class_name=fulfilled
sequence_code=HTSSMRGVYY system=HLA-A*01:01 class_name=fulfilled
sequence_code=VFNGTSWFI system=HLA-A*01:01 class_name="not fulfilled"
sequence_code=CGSVGFNIDY system=HLA-A*01:01 class_name="not fulfilled"
sequence_code=FSSRMYCSFY system=HLA-A*01:01 class_name=fulfilled
sequence_code=LDEWSVATFY system=HLA-A*01:01 class_name="not fulfilled"
sequence_code=FVSLAIDAY system=HLA-A*01:01 class_name="not fulfilled"
sequence_code=PVSIINNAVY system=HLA-A*01:01 class_name="not fulfilled"

**Query** Please let me know if VFHLYLQYI shows Kd below 400 nM.
**Result** fulfilled

**Query** Please let me know if FFFVYENAF shows Kd below 400 nM.
**Result** not fulfilled

**Query** Please let me know if TNSVIIMAY shows Kd below 400 nM.
**Result** not fulfilled

**Query** Please let me know if TVAYFNMVY shows Kd below 400 nM.
**Result** fulfilled

**Query** Please let me know if LCANEYTGNY shows Kd below 400 nM.
**Result** not fulfilled

**Query** Please let me know if KYKYFSGAL shows Kd below 400 nM.
**Result** not fulfilled

**Query** Please let me know if EWSVATFYL shows Kd below 400 nM.
**Result** not fulfilled

**Query** Please let me know if FYTTTGIGY shows Kd below 400 nM.
**Result** fulfilled

----------
target: HLA-A*31:01; test: IEDB peptide-MHC binding, purified MHC/competitive/fluorescence; filed as Kd, often an IC50 or EC50 that approximates it; bounds were set here for any values at or beyond the usual limits of such assays; settings: source organism: Paramagnetospirillum magnetotacticum MS-1
parameter-measured: Kd (nM)
Please respond with the number in nM and leave the unit unwritten.

**Query** Kd for RQMLHEIGR ?
**Result** 1.17

----------
biological target: HLA-B*39:01; assay: IEDB peptide-MHC binding, purified MHC/direct/fluorescence; filed as Kd, often an IC50 or EC50 that approximates it; bounds were set here for any values at or beyond the usual limits of such assays; conditions: source organism: Cryptosporidium parvum Iowa II
pKd: −log10 of the molar value.
parameter-measured: pKd

**Query** pKd for YLAKLFLDH ?
**Result** ≤ 4.70
